target: SARS-CoV-2 receptor-binding domain (RBD), wild type (SARS-CoV-2, UniProt P0DTC2, DyLight 488 (NHS ester, about 1.9 dye/protein) in the FRET assay only)
Readout name: binding result

Binder: WNb 49 (VHH) VHH: QVQLQESGGGLVQPGGSLRLSCAASGFTLDYYGIGWFRQAPGKEREGVSGISASGTSTNYADSVKGRFTVSRDNAKNTVYLQMNSLKPEDTAVYYCAAISASYYYTSLHPVEYDSWGQGTQVTVSS
Result: binds
//
Binder: WNb 70 (VHH) VHH: QVQLQESGGGLVQPGGSLNISCASNGFTLDFYAIGWFRQAPGKEREGVSCISSSGGSSKYSDSVKGRFTISRDNAKNTVYLQMNSLQPEDTAVYYCAAQMGSSEYCPIFIPGEGMDYWGKGTQVTVSS
Result: binds
//
Binder: WNb 34 (VHH) VHH: QVQLQESGGGLVEAGDSLRLSCAASGRTFSRYAMGWFRQAPGKEREFVAAVSWNGGNTYYADSVKGRFTISRDNAKNTLYLQMNSLKPEDTAVYYCAAGGEPVVVIKLRNANEYDFLGQGTQVTVSS
Result: binds
